B1: LINE1-full (parent)
chain: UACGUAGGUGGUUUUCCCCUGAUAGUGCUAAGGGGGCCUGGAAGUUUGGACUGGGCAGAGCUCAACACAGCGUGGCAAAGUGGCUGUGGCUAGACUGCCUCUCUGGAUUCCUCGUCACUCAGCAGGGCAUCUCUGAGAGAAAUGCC

variants of: B1; assay: self-cleavage, relative activity (ratio to wild type); higher = more cleavage; in vitro, sequencing; the parent is a self-cleaving ribozyme
ENDPOINT NAME: self-cleavage
Could you respond with only the numeric value?

Example results:
UACGUAGGCGGUUUUCCCCUGAUAGUGCUAAGGGGGCCUGGAAGUUUGGACUGGGCAGAGCUCAACACAGCGUGGCAAAGUGGCUGUGGCUAGACUGCCUCUCUGGAUUCCUCAUCACUCAGCAGGGCAUCUCUGAGAGAAAUGCC    1.42
UACGUAGGUGGUUUUCCCCUGAUAGUGCUAAGGGGGCCUGGAAGUUUGGACUGGGCAGAGCUCAACACAGCGUGGCACAGUGGCUGUGGCUAGACUGCCUCUCUGGAUUCCUCGUCACUCAACAGGGCAUCUCUGAGAGAAAUGCC    1.41

Supply measured self-cleavage of UACGUAGGUGGUUUUCCCCUGAUAGUGCUAAGGGGGCCUGGAAGUUUGGACUGAGCAGAGCUCAACACAGCGUGGCAAAGUGGCUGUGGCUAGACUGCCUCUCUGGAUUCCUCGUCACUCAGCAUGGCAUCUCUGAGAGAAAUGCC in your reply.
0.69

Supply measured self-cleavage of UACGUAGGUGGUUUUCCCCUGAUAGAGCUAAGGGGGCCUGGAAGUUUGGACUGGGCAGAGCUCAACACAGCGUGGCAAAGUGGCUGCGGCUAGACUGCCUCUCUGGAUUCCUCGUCACUCAGCAGGGCAUCUCUGAGAGAAAUGCC in your reply.
0.15

Supply measured self-cleavage of UACGUAGGUGGUUUUCCUCUGAUAGUGCUAAGGGGGCCUGGAAGUUUGGACUGGGCAGAGCUCAACACAGCGUGGCAAAGUGGCUGUGGCUAGACUGCCUCUCUGGAUUCCUCGUCACUCAGCAGGGCGUCUCUGAGAGAAAUGCC in your reply.
0.81

Supply measured self-cleavage of UACGUAGGUGGUUUUCCCCUGAUAGUGCAAAGGGGGCCUGGAAGUUUGGACUGGGCAGAGCUCAACACAGCGUGGCAAAGCGGCUGUGGCUAGACUGCCUCUCUGGAUUCCUCGUCACUCAGCAGGGCAUCUCUGAGAGAAAUGCC in your reply.
0.92

Supply measured self-cleavage of UACGUAGGUGGUUUUCCCCUGAUAGUGCUAAGGGGGCCUGGAAGUUUGGACUGGGCAGAGCUCAACACAGCGUGGCAAAGUGGCUGUGGCUAGACUGCCUCUCUGGAUACCUCGUCACUCAGCAGGGCAUCUCUGUGAGAAAUGCC in your reply.
2.61

Supply measured self-cleavage of UACGUAGGGGGUUUUCCCCUGAUAGUGCUAAGGGGGCCUGGAAGUUUGGACUGGGCAGAGCUCAACACAGCGUGGCAAAGUGGCUGUGGCUAGACUGCCUCUCUGGGUUCCUCGUCACUCAGCAGGGCAUCUCUGAGAGAAAUGCC in your reply.
1.13

Supply measured self-cleavage of UACGUAGGUGGAUUUCCCCUGAUAGUGCUAAGGGGGCCUGGAAGUUUGGACUGGGCAGAGCUCAACACAGCGUGGCAAAGUGGCUGUGGCUAGACUGCCUCUCUGGAUUCCUCGUCACUCAGCUGGGCAUCUCUGAGAGAAAUGCC in your reply.
1.23

Supply measured self-cleavage of UACGUAGGUGGUUUUCCCCUGAUAGUGCUAAGGGGGCCUGGAAGUUUGGACUGGGCAGAGCUCAACACAGCGUGGCAAAGUGGCUGUGACUAGACUGCCUCUCUGGAUUCCUCGUCACUCAGCAGGGCAUCUUUGAGAGAAAUGCC in your reply.
0.03

Supply measured self-cleavage of UACGUAGGUGGUUUUCCCCCGAUAGUGCUAAGGGGGCCUGGAAGUUUGGACUGGGCAGAGCUCAACACAACGUGGCAAAGUGGCUGUGGCUAGACUGCCUCUCUGGAUUCCUCGUCACUCAGCAGGGCAUCUCUGAGAGAAAUGCC in your reply.
0.14
